- target desc: T1, Human CLEC-7A (Dectin-1) (human, UniProt Q9BXN2-2 66-201, limits assumed)
- T1 construct: Bought protein; also called C-type lectin domain family 7 member A
- T1 sequence (looked up): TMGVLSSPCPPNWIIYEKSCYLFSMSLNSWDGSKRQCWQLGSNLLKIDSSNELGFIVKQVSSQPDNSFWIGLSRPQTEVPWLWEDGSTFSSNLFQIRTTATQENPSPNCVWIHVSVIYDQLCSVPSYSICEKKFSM
- procedure summary: IgG binding ELISA on coated antigen, absorbance at 450 nm;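 also: specificity panel of related human receptors, coated alongside human LOX1 as the binding positive control, with an isotype human IgG1-TM antibody setting the nonspecific background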
observable: binding result

LX5140093_N>D IgG1-TM (antibody, V domains shown, Whole human IgG1-TM; Heavy chain N96D (Kabat) variant of LX5140093; also called LX5140093_D) VH: QVQLVQSGAEVKKPGASVKVSCKVSGYTLTELSMHWVRQAPGKGLEWMGGFDPEDWAYHQAQKFQGRVTMTEDTSTDTAYMELSSLRSEDTAVYYCATPDGQQGKGVRGWDYYYGMDVWGQGTTVTVSS VL: QSVVTQPPSVSGAPGQRVTISCTGSSSNIGAGYDVHWYQQLPGTAPKLLIYGNSNRPSGVPDRFSGSKSGTSASLAITGLQAEDEADYYCQSYDSSHRAWAFGGGTKLTVL    no binding
LX6960073_gl IgG1-TM (antibody, V domains shown, Whole human IgG1-TM, germlined) VH: EVQLVESGGGLVQPGRSLRLSCAASGFTSDDYAMHWVRQAPGKGLEWVSGISWNSGSIGYADSVKGRFTISRDNAKNSLYLQMNGLRAEDTAVYYCAREGSWNYDALDIWGQGTMVTVSS VL: QSALTQPASVSGSPGQPITISCTGTSSDVGGYNYVSWYQQHPGKAPKLMIYDVSKRPSGVSNRFSGSKSGNTASLTISGLQAEDEADYYCMGGMGRSTNWVFGGGTKLTVL    no binding
LX6960073_G82bS_gl IgG1-TM (antibody, V domains shown, Whole human IgG1-TM, germlined, with heavy chain G82bS (Kabat); also called LOX10696_73) VH: EVQLVESGGGLVQPGRSLRLSCAASGFTSDDYAMHWVRQAPGKGLEWVSGISWNSGSIGYADSVKGRFTISRDNAKNSLYLQMNSLRAEDTAVYYCAREGSWNYDALDIWGQGTMVTVSS VL: QSALTQPASVSGSPGQPITISCTGTSSDVGGYNYVSWYQQHPGKAPKLMIYDVSKRPSGVSNRFSGSKSGNTASLTISGLQAEDEADYYCMGGMGRSTNWVFGGGTKLTVL    no binding

Ref: patent US20210347900A1
